Measured SHP2% degradation by item
Target: SHP2 protein (Homo sapiens, UniProt Q06124)
Experiment: Measurement of SHP2 protein degradation in NCI-H358 cells (western blotting)
Type: cell-based
Set-up: endogenous in cells; host or cells: NCI-H358
Conditions: 0.01 μM, harvested after 24 hours
Your answer is read as %, so omit the unit and give the number.

# annotated cases, reported SHP2% degradation shown
Cc1ncsc1-c1ccc(CNC(=O)[C@@H]2C[C@@H](O)CN2C(=O)[C@@H](NC(=O)C2(F)CC2)C(C)(C)C)c(OC2CCN(CC3(O)CCN(c4nccc(Sc5cnc(N6CCC(C)(CN)CC6)cn5)c4Cl)CC3)CC2)c1 | −8.0
Cc1ncsc1-c1ccc(CNC(=O)[C@@H]2C[C@@H](O)CN2C(=O)[C@H](C(C)C)n2cc(C3CC3)nn2)c(OC2CCN(C(=O)C3CCN(c4nccc(Sc5cnc(N6CCC7(CC6)CO[C@@H](C)[C@H]7N)c(CO)n5)c4Cl)CC3)CC2)c1 | 99.1

Ask: Which SHP2% degradation is listed for Cc1cc(C(C(=O)N2C[C@H](O)C[C@H]2C(=O)NCc2ccc(-c3scnc3C)cc2OC2CCN(C(=O)C3CCN(c4nccc(Sc5cnc(N6CCC7(CC6)CO[C@@H](C)[C@H]7N)cn5)c4Cl)CC3)CC2)C(C)C)on1 (some centres unmarked) ?
Result: 99.2

Ask: What value of SHP2% degradation has been reported for the following compound? `Cc1cn([C@H](C(=O)N2C[C@H](O)C[C@H]2C(=O)NCc2ccc(-c3scnc3C)cc2OC2CCN(C(=O)C3CCN(c4nccc(Sc5cnc(N6CCC(C)(CN)CC6)c(CO)n5)c4Cl)CC3)CC2)C(C)C)nn1`
Result: 99.1

Ask: So what does the record say about SHP2% degradation for `CC(=O)N[C@H](C(=O)N1C[C@H](O)C[C@H]1C(=O)NCc1ccc(-c2scnc2C)cc1OC1CCN(C(=O)C2CCN(c3nccc(Sc4cnc(N5CCC(C)(CN)CC5)c(CO)n4)c3Cl)CC2)CC1)C(C)(C)C` ?
Result: 98.0

Ask: Returns the measured SHP2% degradation for the input compound. Input: `Cc1ncsc1-c1ccc(CNC(=O)[C@@H]2C[C@@H](O)CN2C(=O)[C@@H](NC(=O)C2(F)CC2)C(C)(C)C)c(OC2CCN(C(=O)CC3CN(c4nccc(Sc5cnc(N6CCC(C)(CN)CC6)cn5)c4Cl)C3)CC2)c1`
Result: 87.9

Ask: For the compound `Cc1ncsc1-c1ccc(CNC(=O)[C@@H]2C[C@@H](O)CN2C(=O)[C@H](C(C)C)n2cc(C3CC3)nn2)c(OC2CCN(C(=O)C3CCN(c4nccc(Sc5cnc(N6CCC(C)(CN)CC6)c(CO)n5)c4Cl)CC3)CC2)c1` , what SHP2% degradation is on record?
Result: 98.6

Ask: Field request: SHP2% degradation | item: `CC(=O)N[C@H](C(=O)N1C[C@H](O)C[C@H]1C(=O)NCc1ccc(-c2scnc2C)cc1OC1CCN(C(=O)C2CCN(c3nccc(Sc4cnc(N5CCC6(CC5)CO[C@@H](C)[C@H]6N)c(CO)n4)c3Cl)CC2)CC1)C(C)(C)C`
Result: 99.6

----------
Biological target: SHP2 protein (Homo sapiens, UniProt Q06124)
Experiment: Measurement of SHP2 protein degradation in MV-4-11 cells (western blotting)
Assay type: cell-based
Design: endogenous in cells
Details: 0.01 μM, harvested after 24 hours
assay-endpoint: SHP2% degradation (%)
Give the number; % is assumed, so skip it.

Cc1ncsc1-c1ccc(CNC(=O)[C@@H]2C[C@@H](O)CN2C(=O)[C@@H](NC(=O)C2(F)CC2)C(C)(C)C)c(OC2CN(C(=O)C3CCN(c4nccc(Sc5cnc(N6CCC(C)(CN)CC6)cn5)c4Cl)CC3)C2)c1 | 65.8

Ask: Which measured SHP2% degradation value corresponds to `Cc1ncsc1-c1ccc(CNC(=O)[C@@H]2C[C@@H](O)CN2C(=O)[C@@H](NC(=O)C2(F)CC2)C(C)(C)C)c(OC2CCN(C[C@H]3CC[C@H](Nc4nccc(Sc5cnc(N6CCC(C)(CN)CC6)cn5)c4Cl)CC3)CC2)c1` ?
Result: 10.1

----------
Target: SHP2 protein (Homo sapiens)
Sequence (Q06124 1-593): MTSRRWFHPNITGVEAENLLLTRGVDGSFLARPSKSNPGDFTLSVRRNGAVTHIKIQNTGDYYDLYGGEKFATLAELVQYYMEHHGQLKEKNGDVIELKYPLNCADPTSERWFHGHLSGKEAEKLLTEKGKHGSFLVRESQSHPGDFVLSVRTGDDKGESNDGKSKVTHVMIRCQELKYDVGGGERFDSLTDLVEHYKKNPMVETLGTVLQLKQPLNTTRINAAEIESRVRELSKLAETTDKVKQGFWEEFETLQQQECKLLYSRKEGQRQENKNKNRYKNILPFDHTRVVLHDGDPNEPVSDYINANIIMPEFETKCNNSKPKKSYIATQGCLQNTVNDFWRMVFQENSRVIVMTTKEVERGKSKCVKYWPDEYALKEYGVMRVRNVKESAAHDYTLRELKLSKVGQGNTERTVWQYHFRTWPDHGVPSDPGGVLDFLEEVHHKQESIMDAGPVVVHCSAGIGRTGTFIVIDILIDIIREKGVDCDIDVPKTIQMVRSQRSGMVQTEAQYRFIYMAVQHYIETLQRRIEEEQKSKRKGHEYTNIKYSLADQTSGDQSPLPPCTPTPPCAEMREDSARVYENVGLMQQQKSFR
Test: Measurement of SHP2 protein degradation in MV-4-11 cells (western blotting)
Assay type: cell-based
Set-up: endogenous in cells
Details: 0.1 μM, harvested after 24 hours
assay-endpoint: SHP2% degradation (%)
Numbers only; they are read as %.

Some molecules with recorded SHP2% degradation:
Cc1ncsc1-c1ccc(CNC(=O)[C@@H]2C[C@@H](O)CN2C(=O)[C@@H](NC(=O)C2(F)CC2)C(C)(C)C)c(OC2CCN(C(=O)C3CCN(c4nccc(Sc5cnc(N6CCC(C)(N)CC6)cn5)c4Cl)CC3)CC2)c1 | 99.6
Cc1ncsc1-c1ccc(CNC(=O)[C@@H]2C[C@@H](O)CN2C(=O)[C@@H](NC(=O)C2(F)CC2)C(C)(C)C)c(O[C@H]2CC[C@H](C(=O)N3CCC(CNc4cccc(Sc5cnc(N6CCC(C)(CN)CC6)cn5)c4Cl)CC3)CC2)c1 | 95.7
Cc1ncsc1-c1ccc(CNC(=O)[C@@H]2C[C@@H](O)CN2C(=O)[C@@H](NC(=O)C2(F)CC2)C(C)(C)C)c(O[C@H]2CC[C@H](C(=O)N3CC(Nc4cccc(Sc5cnc(N6CCC7(CC6)CO[C@@H](C)[C@H]7N)cn5)c4Cl)C3)CC2)c1 | 99.5
Cc1ncsc1-c1ccc(CNC(=O)[C@@H]2C[C@@H](O)CN2C(=O)[C@@H](NC(=O)C2(F)CC2)C(C)(C)C)c(O[C@H]2CC[C@H](CN3CCC(Nc4cccc(Sc5cnc(N6CCC(C)(CN)CC6)cn5)c4Cl)CC3)CC2)c1 | 56.9
Cc1ncsc1-c1ccc(CNC(=O)[C@@H]2C[C@@H](O)CN2C(=O)[C@@H](NC(=O)C2(F)CC2)C(C)(C)C)c(OCCN2CCN(CCNc3cccc(Sc4cnc(N5CCC(C)(CN)CC5)cn4)c3Cl)C(=O)C2)c1 | 90.3
Cc1ncsc1-c1ccc(CNC(=O)[C@@H]2C[C@@H](O)CN2C(=O)[C@@H](NC(=O)C2(F)CC2)C(C)(C)C)c(OCC2CCN(C(=O)C3CCN(c4nccc(Sc5cnc(N6CCC(C)(CN)CC6)cn5)c4Cl)CC3)CC2)c1 | 97.7
Cc1ncsc1-c1ccc(CNC(=O)[C@@H]2C[C@@H](O)CN2C(=O)[C@@H](NC(=O)C2(F)CC2)C(C)(C)C)c(OC2CCN(C(=O)CC3CCN(c4nccc(Sc5cnc(N6CCC(C)(CN)CC6)cn5)c4Cl)CC3)CC2)c1 | 99.4
Cc1ncsc1-c1ccc(CNC(=O)[C@@H]2C[C@@H](O)CN2C(=O)[C@@H](NC(=O)C2(F)CC2)C(C)(C)C)c(OC2CCN(C[C@H]3CC[C@H](Nc4nccc(Sc5cnc(N6CCC(C)(CN)CC6)cn5)c4Cl)CC3)CC2)c1 | 55.4
Cc1ncsc1-c1ccc(CNC(=O)[C@@H]2C[C@@H](O)CN2C(=O)[C@@H](NC(=O)C2(F)CC2)C(C)(C)C)c(OC2CCN(CC3CCN(c4nccc(Sc5cnc(N6CCC(C)(CN)CC6)cn5)c4Cl)CC3)CC2)c1 | 81.1
Cc1ncsc1-c1ccc(CNC(=O)[C@@H]2C[C@@H](O)CN2C(=O)[C@@H](NC(=O)C2(F)CC2)C(C)(C)C)c(OC2CCN(C(=O)CC3(O)CCN(c4nccc(Sc5cnc(N6CCC(C)(CN)CC6)cn5)c4Cl)CC3)CC2)c1 | 99.8

Ask: Look up SHP2% degradation for this molecule: `Cc1ncsc1-c1ccc(CNC(=O)[C@@H]2C[C@@H](O)CN2C(=O)[C@@H](NC(=O)C2(F)CC2)C(C)(C)C)c(OC2CCN(C(=O)[C@H]3C[C@H](Nc4nccc(Sc5cnc(N6CCC(C)(CN)CC6)cn5)c4Cl)C3)CC2)c1`
Result: 99.3

Ask: # get_value(readout='SHP2% degradation', item= `Cc1ncsc1-c1ccc(CNC(=O)[C@@H]2C[C@@H](O)CN2C(=O)[C@@H](NC(=O)C2(F)CC2)C(C)(C)C)c(OCCN2CCN(C(=O)C3CCN(c4nccc(Sc5cnc(N6CCC(C)(CN)CC6)cn5)c4Cl)CC3)CC2)c1` )
Result: 99.3

Ask: Give its SHP2% degradation value. Item: `Cc1ncsc1-c1ccc(CNC(=O)[C@@H]2C[C@@H](O)CN2C(=O)[C@@H](NC(=O)C2(F)CC2)C(C)(C)C)c(OC2CN(C(=O)C3CCN(c4nccc(Sc5cnc(N6CCC(C)(CN)CC6)cn5)c4Cl)CC3)C2)c1`
Result: 97.7

Ask: Please give the measured SHP2% degradation for this molecule: `Cc1ncsc1-c1ccc(CNC(=O)[C@@H]2C[C@@H](O)CN2C(=O)[C@@H](NC(=O)C2(F)CC2)C(C)(C)C)c(OC2CCN(C(=O)[C@H]3C[C@@H](Nc4nccc(Sc5cnc(N6CCC(C)(CN)CC6)cn5)c4Cl)C3)CC2)c1`
Result: 99.5

Ask: Item `Cc1ncsc1-c1ccc(CNC(=O)[C@@H]2C[C@@H](O)CN2C(=O)[C@@H](NC(=O)C2(F)CC2)C(C)(C)C)c(OCCN2CCC(C(=O)N3CCC(Nc4cccc(Sc5cnc(N6CCC(C)(CN)CC6)cn5)c4Cl)CC3)CC2)c1` has what recorded SHP2% degradation?
Result: 92.6

Ask: Given the entry `Cc1ncsc1-c1ccc(CNC(=O)[C@@H]2C[C@@H](O)CN2C(=O)[C@@H](NC(=O)C2(F)CC2)C(C)(C)C)c(OCCCCCCN2CCC(CNc3cccc(Sc4cnc(N5CCC(C)(CN)CC5)cn4)c3Cl)CC2)c1` , report its measured SHP2% degradation.
Result: 6.5
